Values compiled from ChEMBL document CHEMBL5532758.

Answer each item with its documented IC50 at 48 h.
# protocol text: Cytotoxicity against human Intestine 407 cells assessed as inhibition of cell proliferation incubated for 48 hrs by MTT assay
# Type: toxicity, cell-based
Note: a bare number is incomplete; add the unit.

Q. Please give the documented IC50 at 48 h of [2H]C([2H])([Se][Se]C([2H])([2H])C([2H])([2H])C(=O)O)C([2H])([2H])C(=O)O
A. 507 µM

Q. Give IC50 at 48 h for the following compound: O=C(O)CC[Se][Se]CCC(=O)O
A. 483 µM

---

Could you please report measured selectivity ratio for the items listed next?
# protocol text: Therapeutic index, ratio of IC50 for cytotoxicity against human Intestine 407 cells to IC50 for antiproliferative activity against human NCI-H1975 cells by MTT assay
# Format: toxicity, cell-based
# setup conditions: Intestine 407 cells versus NCI-H1975 cells, read-out: Ratio IC50
Simply state the number, no unit and no words.

Q. Fill in selectivity ratio for record [2H]C([2H])([Se][Se]C([2H])([2H])C([2H])([2H])C(=O)O)C([2H])([2H])C(=O)O
A. 110

Q. Complete the entry with selectivity ratio for O=C(O)CC[Se][Se]CCC(=O)O
A. 32.5

---

Kindly state inhibition at 24 h, 150 µM for each of the entries shown.
# Test system: GST
# protocol text: Reduction in intracellular activity of GST in human WI-38 cells at 150 uM incubated for 24 hrs relative to control
# Format: toxicity, cell-based
Numeric answer only, unit % assumed.

Q. With GST as the test system, provide measured inhibition at 24 h, 150 µM for this compound: O=C(O)CC[Se][Se]CCC(=O)O
A. 24

Q. Consider the compound [2H]C([2H])([Se][Se]C([2H])([2H])C([2H])([2H])C(=O)O)C([2H])([2H])C(=O)O tested on GST; state its inhibition at 24 h, 150 µM.
A. 8

---

# protocol text: Therapeutic index, ratio of IC50 for cytotoxicity against human WI-26 AV4 cells to IC50 for antiproliferative activity against human A549 cells by MTT assay
# Type: toxicity, cell-based
# setup conditions: WI-26 AV4 cells versus A549 cells, read-out: Ratio IC50
measured parameter: selectivity ratio
Give the figure by itself; no unit, no explanation.

Q. Report selectivity ratio for [2H]C([2H])([Se][Se]C([2H])([2H])C([2H])([2H])C(=O)O)C([2H])([2H])C(=O)O
A. 36.2

Q. Give me measured selectivity ratio, please, for this molecule: O=C(O)CC[Se][Se]CCC(=O)O
A. 9.9

---

Please go through the items and note down their IC50 at 48 h.
# protocol text: Cytotoxicity against human WI-26 AV4 cells assessed as inhibition of cell proliferation incubated for 48 hrs by MTT assay
# Type: toxicity, cell-based
Express it in µM; write the number only.

Q. For the molecule [2H]C([2H])([Se][Se]C([2H])([2H])C([2H])([2H])C(=O)O)C([2H])([2H])C(=O)O , report IC50 at 48 h.
A. 550

Q. Consider the molecule O=C(O)CC[Se][Se]CCC(=O)O . State its measured IC50 at 48 h.
A. 151

---

# System: WI-38
# protocol text: Cytotoxicity against human WI-38 cells assessed as reduction in size and number of surviving clones incubated for 7 days by crystal violet staining method
# Format: toxicity, cell-based
measured parameter: pIC50
Note on pIC50: it is the negative log10 of concentration, concentration in mol/L.

Q. Find the measured pIC50 of [2H]C([2H])([Se][Se]C([2H])([2H])C([2H])([2H])C(=O)O)C([2H])([2H])C(=O)O and report it.
A. 4.45

Q. Let me know recorded pIC50 for O=C(O)CC[Se][Se]CCC(=O)O , thanks.
A. 4.75

---

# protocol text: Therapeutic index, ratio of IC50 for cytotoxicity against human WI-26 AV4 cells to IC50 for antiproliferative activity against human NCI-H1975 cells by MTT assay
# Assay type: toxicity, cell-based
# setup conditions: WI-26 AV4 cells versus NCI-H1975 cells, read-out: Ratio IC50
measured parameter: selectivity ratio
Response field accepts a number only; no unit should be typed.

Q. Please look at this compound and report its selectivity ratio: O=C(O)CC[Se][Se]CCC(=O)O
A. 14.2

Q. Answer with reported selectivity ratio of [2H]C([2H])([Se][Se]C([2H])([2H])C([2H])([2H])C(=O)O)C([2H])([2H])C(=O)O
A. 120

---

Task for the reader: assign each of the following compounds its reported selectivity ratio.
# protocol text: Therapeutic index, ratio of IC50 for cytotoxicity against human WI-38 cells to IC50 for antiproliferative activity against human A549 cells by MTT assay
# Format: toxicity, cell-based
# setup conditions: WI-38 cells versus A549 cells, read-out: Ratio IC50
Kindly provide the number alone.

Q. Tell me its selectivity ratio given O=C(O)CC[Se][Se]CCC(=O)O as the entry.
A. 11.2

Q. Return value of selectivity ratio for input [2H]C([2H])([Se][Se]C([2H])([2H])C([2H])([2H])C(=O)O)C([2H])([2H])C(=O)O , no commentary.
A. 65.7
